Test system: Human betaherpesvirus 5
Method: Antiviral activity against Human Cytomegalovirus
Assay type: functional, organism-based
Kindly state IC50 for each of the entries shown.
One number for each entry, in nM.

[
  {
    "Item smiles": "Cc1cc(OCc2nnc(SC3CCCC3)n2-c2cccnc2)ccc1-c1ccc(S(C)(=O)=O)cc1",
    "Experimental value": 130
  }
]

Now turn to the next molecule.
Hey, Human betaherpesvirus 5 data for Nc1nc2c(ncn2COC(CO)CO)c(=O)[nH]1 : IC50 came out at 1300

----------
Kindly state IC50 for each of the entries shown.
Experimental system: Transitional endoplasmic reticulum ATPase (Homo sapiens)
Sequence (P55072 whole entry): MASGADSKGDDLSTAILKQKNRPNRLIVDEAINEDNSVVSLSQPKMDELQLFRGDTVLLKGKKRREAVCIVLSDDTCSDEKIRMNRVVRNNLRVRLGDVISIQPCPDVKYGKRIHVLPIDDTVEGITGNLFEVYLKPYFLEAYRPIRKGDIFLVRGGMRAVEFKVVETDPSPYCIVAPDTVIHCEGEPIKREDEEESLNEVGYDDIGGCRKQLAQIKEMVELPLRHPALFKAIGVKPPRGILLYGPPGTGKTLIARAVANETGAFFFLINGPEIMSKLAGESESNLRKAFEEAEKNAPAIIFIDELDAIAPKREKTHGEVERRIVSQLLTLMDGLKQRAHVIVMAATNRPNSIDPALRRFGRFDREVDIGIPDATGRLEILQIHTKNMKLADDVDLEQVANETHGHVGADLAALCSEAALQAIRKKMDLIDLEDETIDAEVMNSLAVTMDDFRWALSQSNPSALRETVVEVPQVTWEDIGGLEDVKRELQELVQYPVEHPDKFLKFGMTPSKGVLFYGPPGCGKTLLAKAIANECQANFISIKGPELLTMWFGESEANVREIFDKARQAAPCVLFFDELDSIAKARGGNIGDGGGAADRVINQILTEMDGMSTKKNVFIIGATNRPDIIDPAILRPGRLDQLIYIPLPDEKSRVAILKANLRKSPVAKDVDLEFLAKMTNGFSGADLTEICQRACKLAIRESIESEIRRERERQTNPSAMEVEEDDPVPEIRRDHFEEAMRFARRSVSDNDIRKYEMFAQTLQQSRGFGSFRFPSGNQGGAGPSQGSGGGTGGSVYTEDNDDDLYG
Method: Inhibition of p97 (unknown origin) assessed as reduction in ATPase activity
Give bare numbers, in nM.

[
  {
    "Item smiles": "[N-]=[N+]=Nc1cccc(OCc2nnc(SC3CCCC3)n2-c2cccnc2)c1",
    "IC50 / nM": 760
  }
]

Now turn to the next compound.
Record [N-]=[N+]=Nc1cccc(-n2c(COc3ccc(CCCO)cc3)nnc2SC2CCCC2)c1 , field IC50: 1100

These data points were gathered from ChEMBL document CHEMBL4354809.
